B1: Azoarcus group I ribozyme (parent)
chain: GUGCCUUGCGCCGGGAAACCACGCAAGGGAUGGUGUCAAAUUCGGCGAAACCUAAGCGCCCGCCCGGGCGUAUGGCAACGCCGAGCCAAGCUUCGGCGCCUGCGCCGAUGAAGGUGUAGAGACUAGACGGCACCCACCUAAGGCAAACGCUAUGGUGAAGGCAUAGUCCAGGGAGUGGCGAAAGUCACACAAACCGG

# Variants of: B1
# run_description: reverse-splicing fitness (ratio to wild type); higher = more active; in vitro selection; Mg2+ level not given
Label scheme for reverse-splicing fitness: lower than 0.008 is f, 0.008 and above is t.

>>> classification("C82U A111G A120C A145G C169G U176C")
"t"
>>> classification("A111C A120U A145U C150U C169A U176C")
"f"
>>> classification("A111C A145G C150G C169G")
"t"
>>> classification("C82A A111U A120G A145G C150G U176C")
"t"
>>> classification("A111C A120G A145U C150A C169U")
"t"
>>> classification("A111C A120U A145G U176C")
"t"
>>> classification("C82A A111C A120U C150U U176A")
"f"
>>> classification("C82A A120U C169A U176C")
"f"
>>> classification("A111G A145G C150U C169A U176G")
"f"
>>> classification("C82U A120G A145G C150G C169G U176A")
"t"
>>> classification("C82G A111C A145C C150U C169U U176G")
"f"
>>> classification("C82G A111C A120G A145C C150U C169G")
"t"
>>> classification("C82A A111C A120C A145G C150U C169G U176A")
"t"
>>> classification("C82G A111C A145C C169A U176C")
"t"
>>> classification("A111G C150U")
"t"
>>> classification("C82G A111G A120G C150G U176C")
"t"
>>> classification("C82G A120U A145G C169G U176C")
"f"
>>> classification("C82U A111C A120U A145G C150U C169A U176A")
"f"
>>> classification("C82G A111G A120G A145G C150G C169U U176C")
"t"
>>> classification("C82G A111C A145U C150A U176C")
"t"
>>> classification("C82G A111G A120G A145C C150U C169U U176A")
"t"
>>> classification("C82U A111U A120U A145C C150G C169G U176C")
"f"
>>> classification("C82G A111C A120C")
"t"
>>> classification("C82A A120G U176C")
"t"
>>> classification("A111G A120C A145C C169A")
"t"
>>> classification("C82U A111C A120U C150G C169U U176G")
"f"
>>> classification("C82A A111C A120U C169U U176A")
"f"
>>> classification("C82G A120C A145G C150A C169U U176C")
"t"
>>> classification("A120U A145C C150A C169G U176A")
"f"
>>> classification("C82A A120U A145U C150U C169A")
"f"
>>> classification("C82A A111G A145G C150U C169A U176C")
"t"
>>> classification("C82G A111C A120C A145U C150U C169U U176C")
"t"
>>> classification("C82A A111U A120C C150A U176G")
"t"
>>> classification("C82A A111C A145U C150A C169A U176C")
"t"
>>> classification("C82G A111U A120U C150U U176A")
"t"
>>> classification("C82A A111U A145C C150A C169U U176A")
"t"
>>> classification("C82U A111G A145C C150A C169G")
"f"
>>> classification("C82U A120C C169A U176G")
"f"
>>> classification("C82A A120U A145G C150U C169A U176C")
"f"
>>> classification("C82A A111U A120U C169A U176G")
"f"
>>> classification("A111C A120G C150G C169A")
"t"
>>> classification("C82U A111G A120U A145G C150U C169U U176C")
"f"
>>> classification("C82A A111U A120G C150U C169G U176C")
"t"
>>> classification("C82G A145U C150G U176C")
"t"
>>> classification("C82A A111C A120G A145G C150G C169U")
"t"
